Tested on: Escherichia coli
Assay: Antibacterial activity against Escherichia coli at 200 ppm after 24 hr by disk diffusion method
Type: functional
Conditions: read-out: IZ
Exercise: for every item that follows, state its recorded zone of inhibition at 200 ppm.
Give the value, in units of mm, as a plain number.

zone of inhibition at 200 ppm reported for this compound Cc1ccc(C2NC(c3ccc(C)cc3)C(C)(C)c3nnsc32)cc1 (stereo not given) : 12

Just so you know, measured zone of inhibition at 200 ppm for COc1ccc(C2NC(c3ccc(OC)cc3)C(C)(C)c3nnsc32)cc1 (stereo not given) came out at 17

Lookup result for CC1(C)c2nnsc2C(c2ccc(Cl)cc2)NC1c1ccc(Cl)cc1 (stereo not given) ; measured zone of inhibition at 200 ppm: 12

Just so you know, measured zone of inhibition at 200 ppm for CC1(C)c2nnsc2C(c2ccc(F)cc2)NC1c1ccc(F)cc1 (stereo not given) came out at 17

Looking up CC1(C)c2nnsc2C(c2ccccc2)NC1c1ccccc1 (stereo not given) , I see its zone of inhibition at 200 ppm listed as 12
